Data provenance: paper PMC8605241

tested_system: T1, ComRSth-StreptagII protein (Streptococcus thermophilus ComR) (Streptococcus thermophilus)
T1 chain: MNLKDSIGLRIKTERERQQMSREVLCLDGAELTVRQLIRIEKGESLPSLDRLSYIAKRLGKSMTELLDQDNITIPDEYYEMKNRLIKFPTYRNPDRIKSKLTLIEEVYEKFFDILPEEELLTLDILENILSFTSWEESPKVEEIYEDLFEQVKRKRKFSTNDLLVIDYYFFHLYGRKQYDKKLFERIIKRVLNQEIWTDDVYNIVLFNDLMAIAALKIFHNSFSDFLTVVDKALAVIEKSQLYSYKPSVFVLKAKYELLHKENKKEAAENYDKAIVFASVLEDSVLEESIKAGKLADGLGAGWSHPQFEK
assay_procedure: FP; competition with FITC-XIP-A5M
pIC50: −log10 of the molar value.
property_measured: pIC50

>>> print(df.to_string())
                                     binder   val
0  LPYFAGCL [XIPSth (Streptococcus thermophilus XIP, synthetic octapeptide)]  6.60
